Target: Cytochrome P450 3A4 (Homo sapiens)
Sequence (P08684 whole entry): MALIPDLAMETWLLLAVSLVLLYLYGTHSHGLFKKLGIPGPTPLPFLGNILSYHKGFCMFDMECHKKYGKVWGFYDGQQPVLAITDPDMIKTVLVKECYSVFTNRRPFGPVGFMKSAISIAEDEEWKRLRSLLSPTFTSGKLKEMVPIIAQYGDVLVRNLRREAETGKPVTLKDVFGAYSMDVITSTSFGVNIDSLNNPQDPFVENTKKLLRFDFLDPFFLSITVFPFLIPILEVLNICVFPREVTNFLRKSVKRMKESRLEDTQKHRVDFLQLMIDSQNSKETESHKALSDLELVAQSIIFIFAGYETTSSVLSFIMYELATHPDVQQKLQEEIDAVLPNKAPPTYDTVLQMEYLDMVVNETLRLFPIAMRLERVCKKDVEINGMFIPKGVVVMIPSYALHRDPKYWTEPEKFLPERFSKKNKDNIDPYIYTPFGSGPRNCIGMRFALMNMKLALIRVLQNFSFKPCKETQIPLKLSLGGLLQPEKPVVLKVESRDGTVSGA
recorded endpoint: pIC50
# pIC50: negative log10 of molar concentration; output just the value

Please report pIC50 with Cytochrome P450 3A4 (Homo sapiens) for item `COc1ccccc1CC[C@@H]1CCc2cc([C@H]3CC[C@](N)(CO)C3)ccc2C1` .
5.26

* * *

Target: Cytochrome P450 2D6 (Homo sapiens, UniProt P10635)
Sequence (P10635 whole entry): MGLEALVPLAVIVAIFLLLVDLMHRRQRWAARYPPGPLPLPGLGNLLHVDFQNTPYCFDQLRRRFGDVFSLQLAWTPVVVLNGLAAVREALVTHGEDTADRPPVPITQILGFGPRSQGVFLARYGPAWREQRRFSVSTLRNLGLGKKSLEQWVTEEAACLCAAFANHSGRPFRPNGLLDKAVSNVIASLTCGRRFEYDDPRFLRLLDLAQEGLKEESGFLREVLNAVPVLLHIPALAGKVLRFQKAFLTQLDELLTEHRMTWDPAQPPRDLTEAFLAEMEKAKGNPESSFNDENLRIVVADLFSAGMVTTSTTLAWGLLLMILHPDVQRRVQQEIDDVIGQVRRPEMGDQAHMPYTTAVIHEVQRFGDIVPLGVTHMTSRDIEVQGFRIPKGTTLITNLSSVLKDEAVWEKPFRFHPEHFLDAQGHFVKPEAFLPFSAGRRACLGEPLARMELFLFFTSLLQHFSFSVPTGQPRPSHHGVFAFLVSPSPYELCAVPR
recorded endpoint: pIC50
# pIC50: negative log10 of molar concentration; output just the value

Please report pIC50 with Cytochrome P450 2D6 (Homo sapiens, UniProt P10635) for item `COc1ccccc1CC[C@@H]1CCc2cc([C@H]3CC[C@](N)(CO)C3)ccc2C1` .
4.74

The measurements presented in this section are drawn from ChEMBL document CHEMBL4765241.
